# System: NCI-H226 lung
# assay_info: NCI tumour cell line growth inhibition, 48 h
Starred links: 1 amine or outer side, 2 acyl side, 3 side chain; linkers in the order of their positions; H or OH if unused. Positions of bridges follow the written chain, without caps; N, C: chain ends. Non-standard residues stand in square brackets, D forms with d. Residues, ends and D or L forms follow the SMILES beside them. *: point of attachment. X3 = CC(C)C(C)C(C(=O)[*:2])N(C)[*:1]; Picolinoyl(3-OH) = O=C(c1ncccc1O)*; NMePhg = CN[CH](C(=O)O)c1ccccc1; Hyp = O=C(O)[CH]1C[CH](O)CN1; Sar = CNCC(=O)O
measured_attribute: TGI

Observe how each entry below is paired with its result.
>  <molecule>
CSCCC(NC(=O)C(Cc1c[nH]c2ccccc12)NC(=O)CCNC(=O)OC(C)(C)C)C(=O)NC(CC(=O)O)C(=O)NC(Cc1ccccc1)C(N)=O (stereo not drawn)

>  <reported>
> 50 µM

$$$$
>  <molecule>
COc1ccc(C2=NNC(c3sc(Cl)nc3Cl)C2)cc1 (stereo not drawn)

>  <reported>
> 100 µM

$$$$
>  <molecule>
C=C1C(=O)OC2C[C@@]3(C)CCCC(=C)C3CC12 (stereo partly drawn)

>  <reported>
26 µM

$$$$

-- ask Please look up its TGI: C/C(=N\NC(=S)N1CCCC1)c1ccccn1
-- reply 2.85 µM

-- ask Please look up its TGI: CCN(CC)c1ccc(/C=N/N=C(N)N)cc1
-- reply 22.8 µM

-- ask Please look up its TGI: COc1cccc(C=NC23CC4CC(CC(C4)C2)C3)c1
-- reply > 100 µM

-- ask Please look up its TGI: CC(C)CC1NC(=O)C(NC(=O)c2ncccc2O)C(C)OC(=O)C(c2ccccc2)N(C)C(=O)C(C)NC(=O)C(C(C)C(C)C)N(C)C(=O)CN(C)C(=O)C2CC(O)CN2C1=O (stereo not drawn) ({Picolinoyl(3-OH)}-TL[Hyp][Sar][X3]A[NMePhg]; ester 1-C; configuration not given here)
-- reply > 125 µM

-- ask Please look up its TGI: C=C1c2nc3ccccc3n2C=C(c2ccccc2)N1c1ccc(C)cc1
-- reply > 100 µM
